assay: Clearance in Sprague-Dawley rat at 1 mg/kg, iv; assay type: ADME, organism-based; parameters: dose 1 mg/kg, route intravenous; conditions: in vivo
REPORTED PROPERTY: clearance (mL/min/kg)
Use mL/min/kg as the unit, but write only the number.

Quick check: clearance of `Cc1ccc(OC(C)(C)C(=O)N[C@@H](C)[C@@H](Cc2ccc(OCCF)cc2)c2cccc(C#N)c2)nc1` ?
81

###

test: Ratio of drug level in brain to plasma in Sprague-Dawley rat at 1 mg/kg, iv after 15 mins; format: ADME, organism-based; parameters: dose 1 mg/kg, route intravenous; conditions: brain and plasma
REPORTED PROPERTY: Kp at 0.25 h
// keep it numeric: no unit symbol after the value

What measured Kp at 0.25 h goes with `Cc1ccc(OC(C)(C)C(=O)N[C@@H](C)[C@@H](Cc2ccc(OCCF)cc2)c2cccc(C#N)c2)nc1` ?
0.5

###

test: Half life in Sprague-Dawley rat at 1 mg/kg, iv; format: ADME, organism-based; design: dose 1 mg/kg, route intravenous; details: in vivo
REPORTED PROPERTY: half-life

Value lookup for half-life; key = `Cc1ccc(OC(C)(C)C(=O)N[C@@H](C)[C@@H](Cc2ccc(OCCF)cc2)c2cccc(C#N)c2)nc1`
1.4 h

###

target: Cannabinoid receptor 1 (Homo sapiens, UniProt P21554); experiment: Displacement of [3H]CP-55940 from human recombinant CB1R expressed in CHO cells
Sequence (P21554 whole entry): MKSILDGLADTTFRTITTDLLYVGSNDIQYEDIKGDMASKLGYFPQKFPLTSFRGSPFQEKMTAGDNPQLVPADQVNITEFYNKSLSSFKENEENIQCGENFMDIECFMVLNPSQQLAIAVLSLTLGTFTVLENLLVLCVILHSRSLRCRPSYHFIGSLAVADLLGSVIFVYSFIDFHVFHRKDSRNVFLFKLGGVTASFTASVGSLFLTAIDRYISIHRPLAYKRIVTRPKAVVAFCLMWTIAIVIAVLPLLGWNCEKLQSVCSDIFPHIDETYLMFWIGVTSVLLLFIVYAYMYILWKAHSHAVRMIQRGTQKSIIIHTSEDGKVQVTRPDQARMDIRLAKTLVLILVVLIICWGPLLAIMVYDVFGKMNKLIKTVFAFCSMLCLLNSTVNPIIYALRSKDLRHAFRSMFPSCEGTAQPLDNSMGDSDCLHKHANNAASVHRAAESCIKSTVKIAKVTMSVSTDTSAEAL
Mark each entry true (1) if its IC50 sits below 0.8 nM, and false (0) for all others.

Consider the following illustrative entries.
{"ITEM SMILES": "Cc1ccc(OC(C)(C)C(=O)N[C@@H](C)[C@@H](Cc2ccc(OCC[18F])cc2)c2cccc(C#N)c2)nc1", "CLASS NAME": "true (1)"}
{"ITEM SMILES": "COc1ccc(C[C@@H](c2cc(F)cc(C#N)c2)[C@H](C)NC(=O)C(C)(C)Oc2ccc(C(F)(F)F)cn2)cc1", "CLASS NAME": "false (0)"}
{"ITEM SMILES": "Cc1ccc(OC(C)(C)C(=O)N[C@@H](C)[C@@H](Cc2ccc(OCCF)cc2)c2cccc(C#N)c2)nc1", "CLASS NAME": "true (1)"}
{"ITEM SMILES": "C[C@H](NC(=O)C(C)(C)Oc1ccc(C(F)(F)F)cn1)[C@@H](Cc1ccc(OCCF)cc1)c1cccc(C#N)c1", "CLASS NAME": "false (0)"}
{"ITEM SMILES": "C[C@H](NC(=O)C(C)(C)Oc1ccccn1)[C@@H](Cc1ccc(OCCF)cc1)c1cccc(C#N)c1", "CLASS NAME": "false (0)"}

Is 0.8 nM strictly greater than the molecule's reported IC50? molecule: `C[C@H](NC(=O)C(C)(C)Oc1cc(C(F)(F)F)ccn1)[C@@H](Cc1ccc(OCCF)cc1)c1cccc(C#N)c1`
true (1)

// repeat for `C[C@H](NC(=O)C(C)(C)Oc1ccc(C(F)(F)F)cn1)[C@@H](Cc1ccc(OCF)cc1)c1cc(F)cc(C#N)c1` and report
false (0)

###

Items are presented alongside their recorded IC50.
biological target: Cannabinoid receptor 1 (Homo sapiens, UniProt P21554); experiment: Displacement of [3H]CP-55940 from human recombinant CB1R expressed in CHO cells; assay type: cell-based
A number alone suffices; assume nM.

Sample answers from the record:
{"ITEM SMILES": "C[C@H](NC(=O)C(C)(C)Oc1ccc(C#N)cn1)[C@@H](Cc1ccc(OCCF)cc1)c1cccc(C#N)c1", "REPORTED PROPERTY": "IC50", "VALUE UNIT": "nM", "NUMBER": 1.8}
{"ITEM SMILES": "Cc1ccnc(OC(C)(C)C(=O)N[C@@H](C)[C@@H](Cc2ccc(OCCF)cc2)c2cccc(C#N)c2)c1", "REPORTED PROPERTY": "IC50", "VALUE UNIT": "nM", "NUMBER": 0.47}
{"ITEM SMILES": "C[C@H](NC(=O)C(C)(C)Oc1ccc(C(F)(F)F)cn1)[C@@H](Cc1ccc(OCCF)cc1)c1cc(F)cc(C#N)c1", "REPORTED PROPERTY": "IC50", "VALUE UNIT": "nM", "NUMBER": 0.9}

Then there is this compound:
Request: IC50, test system Cannabinoid receptor 1 (Homo sapiens, UniProt P21554), entry `C[C@H](NC(=O)C(C)(C)Oc1cc(C(F)(F)F)ncn1)[C@@H](Cc1ccc(OCCF)cc1)c1cccc(C#N)c1`
1.8

Hey, just so you know, these numbers are from ChEMBL document CHEMBL1146232.
